# MEASURED ON: c-Src SH2
# EXPERIMENT SUMMARY: SH2 binding enrichment of the phosphorylated peptide, bacterial display (enrichment ratio); higher = better substrate or ligand; peptides without Tyr show the background
RECORDED METRIC: SH2 binding enrichment
Just the number.

Some sequences with known SH2 binding enrichment results, for comparison:
[[record]]
seq_string = "KVKPIYFRTQG [AR_Y916_H918R]"
recorded_metric = "SH2 binding enrichment"
recorded_number = 1.51

[[record]]
seq_string = "PCPANYFAFKI [FAM3D_Y65]"
recorded_metric = "SH2 binding enrichment"
recorded_number = 0.594

[[record]]
seq_string = "QLHRKYCLSPR [HJURP_Y445_E444K]"
recorded_metric = "SH2 binding enrichment"
recorded_number = 0.961

[[record]]
seq_string = "GCRSKYVGLWG [KCNQ1_Y184]"
recorded_metric = "SH2 binding enrichment"
recorded_number = 0.779


Task item: Endpoint output: SH2 binding enrichment of DDLTDYLMKIL [ACTA1_Y190_R185D] . Value?
Reply: 0.689

Task item: Item: EASGIYVKSVI [PATJ_Y396_I400V]
Reply: 0.481

Task item: Item: DLFRLYICVKE [ARID1B_Y1091_V1092I]
Reply: 0.384

Task item: Item: LLILEYAKFGS [RET_Y806_V804L_YF]
Reply: 1.21

Task item: Item: PVGDAYKKKGL [NMNAT1_Y55]
Reply: 0.626

Task item: Item: SGLDSYVRSLP [TRAPPC1_Y133_R129G]
Reply: 0.492

Task item: Item: SVTCTYSPDLN [TP53_Y126_A129D]
Reply: 0.471

---

# MEASURED ON: c-Src SH2
# EXPERIMENT SUMMARY: SH2 binding enrichment of the phosphorylated peptide, bacterial display (enrichment ratio); higher = better substrate or ligand; peptides without Tyr show the background
RECORDED METRIC: SH2 binding enrichment
Just the number.

Some sequences with known SH2 binding enrichment results, for comparison:
[[record]]
seq_string = "AGQEKYSAMRD [HRAS_Y64_E63K]"
measured_on = "c-Src SH2"
recorded_metric = "SH2 binding enrichment"
recorded_number = 0.496

[[record]]
seq_string = "QRALLYEDALF [UNC13D_Y56_YF]"
measured_on = "c-Src SH2"
recorded_metric = "SH2 binding enrichment"
recorded_number = 0.593

[[record]]
seq_string = "KSDVMYTDWKK [ORM1_Y175_V174M]"
measured_on = "c-Src SH2"
recorded_metric = "SH2 binding enrichment"
recorded_number = 0.47


Task item: Endpoint output: SH2 binding enrichment of EVLKNYNQQKD [GOLGA4_Y1551] . Value?
Reply: 0.32

Task item: Item: VSTAVYKRFAS [BEST1_Y148_P152A]
Reply: 0.49

Task item: Item: FSGKAYADEEQ [CRIM1_Y826_R831Q]
Reply: 0.528

Task item: Item: PLLEFYWDIFT [CDAN1_Y713_R714W_YF]
Reply: 0.527

Task item: Item: DASENYFVMDS [TMEM240_Y77_T80M]
Reply: 0.598

Task item: Item: VPLATYMRIFK [RPL21_Y30_YF]
Reply: 0.535

---

# Tested on: Fer (mouse);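 also: 11-residue human phosphosite peptides and single-mutation variants displayed on the E. coli surface, counted by deep sequencing, each peptide's frequency after selection divided by its frequency in the unselected input library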;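 also: frequency after pTyr selection over input frequency; kinase dosed for 20-30% of maximal phosphorylation in three min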
# EXPERIMENT SUMMARY: phosphorylation enrichment, bacterial display (enrichment ratio); higher = better substrate or ligand; peptides without Tyr show the background
RECORDED METRIC: phosphorylation enrichment
Just the number.

Some sequences with known phosphorylation enrichment results, for comparison:
[[record]]
seq_string = "FLGRDYLETLM [DUS3L_Y610_YF]"
recorded_metric = "phosphorylation enrichment"
recorded_number = 0.591

[[record]]
seq_string = "NKEPRYQEDPP [TJP2_Y479]"
recorded_metric = "phosphorylation enrichment"
recorded_number = 0.59

[[record]]
seq_string = "TRDVNYGWTIR [MT-CYB_Y75_I78T]"
recorded_metric = "phosphorylation enrichment"
recorded_number = 0.588

[[record]]
seq_string = "RRFSSYSQMEN [PKP1_Y120]"
recorded_metric = "phosphorylation enrichment"
recorded_number = 0.833

[[record]]
seq_string = "KDHPDYEFQPR [SOX9_Y172_K173E_YF]"
recorded_metric = "phosphorylation enrichment"
recorded_number = 0.475


Task item: phosphorylation enrichment of RMDGKYACSFT [FLNB_Y704_T703K_YF] on Fer (mouse)?
Reply: 0.701

Task item: Item: GEFHVYRHLRW [PRKRIP1_Y82_R87W]
Reply: 0.413

Task item: Item: HSLRDYKEALM [ADA2_Y337_H335R]
Reply: 0.44

Task item: Item: SARFRYLMAEK [LDHB_Y173]
Reply: 0.348

Task item: Item: SIRFNYLLDVL [FGFR4_Y237_YF]
Reply: 0.502
